Biological target: bacterial RNAP (UniProt P0A8T7+P0A8V2)
Construct: other: reaction mixture used as is for the bioactivity tests
Experiment: Inhibition of bacterial RNAP
Details: read-out: IC50, bacterial RNAP; reaction mixture used as is for the bioactivity tests
measure_name: IC50 (µM)

molecule: N=C(N)NCC(=O)N(O)[C@@H](CCC(=O)NCc1ccccc1)C(=O)NC[C@H]1O[C@@H](c2c[nH]c(=O)[nH]c2=O)[C@H](O)[C@@H]1O [compound III, PUM benzylamide]
measure_name: IC50
units_of_measure: µM
obs_value: 4

* * *

Overview of recorded pIC50 for various compounds
Target: B. subtilis β(Q469R) (Bacillus subtilis, UniProt P37870+P37871, Q469R)
Sequence (P20429 whole entry): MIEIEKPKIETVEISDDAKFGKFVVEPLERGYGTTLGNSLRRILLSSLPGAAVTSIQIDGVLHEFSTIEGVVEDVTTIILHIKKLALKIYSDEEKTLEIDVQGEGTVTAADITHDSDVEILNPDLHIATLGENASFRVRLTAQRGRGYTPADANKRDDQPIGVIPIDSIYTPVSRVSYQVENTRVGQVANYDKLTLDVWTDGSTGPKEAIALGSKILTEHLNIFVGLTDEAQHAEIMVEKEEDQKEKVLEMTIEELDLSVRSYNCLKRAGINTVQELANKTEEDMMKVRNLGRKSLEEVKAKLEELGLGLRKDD
Sequence (P37870 whole entry Q469R): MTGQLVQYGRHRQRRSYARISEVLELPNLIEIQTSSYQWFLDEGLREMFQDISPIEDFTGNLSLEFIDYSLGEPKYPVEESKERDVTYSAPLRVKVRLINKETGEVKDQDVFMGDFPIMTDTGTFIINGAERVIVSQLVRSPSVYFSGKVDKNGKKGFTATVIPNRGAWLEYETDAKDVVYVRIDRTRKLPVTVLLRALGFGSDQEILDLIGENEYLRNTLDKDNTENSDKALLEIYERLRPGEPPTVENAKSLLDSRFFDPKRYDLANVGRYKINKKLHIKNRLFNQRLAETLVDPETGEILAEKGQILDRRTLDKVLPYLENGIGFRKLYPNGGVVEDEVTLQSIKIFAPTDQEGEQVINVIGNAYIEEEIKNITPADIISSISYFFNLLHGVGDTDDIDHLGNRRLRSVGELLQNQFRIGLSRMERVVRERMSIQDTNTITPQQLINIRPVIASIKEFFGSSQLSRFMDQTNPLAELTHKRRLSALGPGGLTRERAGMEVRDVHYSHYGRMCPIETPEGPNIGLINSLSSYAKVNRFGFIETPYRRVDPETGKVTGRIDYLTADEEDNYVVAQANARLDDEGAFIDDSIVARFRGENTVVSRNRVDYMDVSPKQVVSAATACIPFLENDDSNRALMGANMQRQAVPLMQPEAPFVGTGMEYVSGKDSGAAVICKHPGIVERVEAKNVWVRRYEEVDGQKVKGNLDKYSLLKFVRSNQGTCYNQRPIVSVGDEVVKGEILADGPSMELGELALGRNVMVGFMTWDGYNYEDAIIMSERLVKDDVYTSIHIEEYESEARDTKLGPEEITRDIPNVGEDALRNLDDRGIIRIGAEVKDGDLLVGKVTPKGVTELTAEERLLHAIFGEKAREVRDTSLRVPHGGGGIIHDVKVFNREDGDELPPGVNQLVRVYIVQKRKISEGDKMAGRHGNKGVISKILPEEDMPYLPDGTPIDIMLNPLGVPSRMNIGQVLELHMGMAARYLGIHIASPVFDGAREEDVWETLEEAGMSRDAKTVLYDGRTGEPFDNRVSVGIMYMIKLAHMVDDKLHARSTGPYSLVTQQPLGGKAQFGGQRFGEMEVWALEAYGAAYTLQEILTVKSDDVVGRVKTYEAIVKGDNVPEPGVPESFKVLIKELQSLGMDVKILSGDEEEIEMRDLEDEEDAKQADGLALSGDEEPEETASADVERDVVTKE
Sequence (P37871 whole entry): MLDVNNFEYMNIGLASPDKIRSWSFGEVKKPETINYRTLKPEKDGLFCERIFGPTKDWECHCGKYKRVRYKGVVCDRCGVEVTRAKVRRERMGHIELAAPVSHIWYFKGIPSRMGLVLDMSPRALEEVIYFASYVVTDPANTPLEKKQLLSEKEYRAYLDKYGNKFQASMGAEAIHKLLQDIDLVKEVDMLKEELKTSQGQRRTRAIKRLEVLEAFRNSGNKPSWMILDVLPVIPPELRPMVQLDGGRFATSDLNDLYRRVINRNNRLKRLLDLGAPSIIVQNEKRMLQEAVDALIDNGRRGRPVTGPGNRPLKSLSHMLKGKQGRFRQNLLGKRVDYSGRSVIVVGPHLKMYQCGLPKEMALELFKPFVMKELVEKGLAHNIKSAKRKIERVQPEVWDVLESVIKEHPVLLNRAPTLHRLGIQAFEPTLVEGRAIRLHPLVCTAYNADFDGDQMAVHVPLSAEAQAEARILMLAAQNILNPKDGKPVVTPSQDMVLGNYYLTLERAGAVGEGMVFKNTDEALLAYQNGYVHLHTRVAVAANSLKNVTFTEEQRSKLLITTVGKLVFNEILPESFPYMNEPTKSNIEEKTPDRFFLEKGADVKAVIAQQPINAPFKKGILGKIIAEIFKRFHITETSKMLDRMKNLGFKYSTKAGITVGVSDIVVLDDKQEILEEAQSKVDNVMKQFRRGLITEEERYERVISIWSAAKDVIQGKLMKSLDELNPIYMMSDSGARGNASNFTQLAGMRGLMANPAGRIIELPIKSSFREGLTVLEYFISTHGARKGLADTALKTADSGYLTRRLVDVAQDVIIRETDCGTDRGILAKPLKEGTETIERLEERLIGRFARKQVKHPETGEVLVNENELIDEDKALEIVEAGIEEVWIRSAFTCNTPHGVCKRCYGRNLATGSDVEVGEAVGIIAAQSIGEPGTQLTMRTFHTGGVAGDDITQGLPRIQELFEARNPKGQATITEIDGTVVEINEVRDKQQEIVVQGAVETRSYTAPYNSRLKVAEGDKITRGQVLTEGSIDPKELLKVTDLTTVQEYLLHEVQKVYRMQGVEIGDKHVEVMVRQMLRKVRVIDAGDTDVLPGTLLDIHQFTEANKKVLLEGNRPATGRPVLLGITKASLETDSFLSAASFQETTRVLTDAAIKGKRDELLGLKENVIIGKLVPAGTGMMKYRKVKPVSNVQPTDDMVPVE
Sequence (O35011 whole entry, further chain): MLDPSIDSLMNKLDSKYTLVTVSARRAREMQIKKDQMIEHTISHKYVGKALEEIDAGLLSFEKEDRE
Experiment: RNAP inhibition, rifampicin-resistant B. subtilis RNAP
pIC50: −log10 of the molar value.

compound: CO[C@H]1/C=C/O[C@@]2(C)Oc3c(C)c(O)c4c(O)c(c(/C=N/N5CCN(C)CC5)c(O)c4c3C2=O)NC(=O)/C(C)=C\C=C\[C@H](C)[C@H](O)[C@@H](C)[C@@H](O)[C@@H](C)[C@H](OC(C)=O)[C@@H]1C [Rif, rifampicin, reference compound]
tested_system: B. subtilis β(Q469R) (Bacillus subtilis, UniProt P37870+P37871, Q469R)
qualifier: <
pIC50: 3.92

compound: CCc1c(Cl)c(O)c(Cl)c(O)c1C(=O)O[C@H]1[C@H](O)[C@H](OC)[C@H](OC/C2=C\C=C\C[C@H](O)/C(C)=C/[C@H](CC)[C@@H](O[C@@H]3OC(C)(C)[C@@H](OC(=O)C(C)C)[C@H](O)[C@@H]3O)/C(C)=C/C(C)=C/C[C@@H]([C@@H](C)O)OC2=O)O[C@@H]1C [Fdx, fidaxomicin, reference compound]
tested_system: B. subtilis β(Q469R) (Bacillus subtilis, UniProt P37870+P37871, Q469R)
qualifier: =
pIC50: 6.15

compound: N=C(N)NCC(=O)N(O)[C@@H](CCC(N)=O)C(=O)NC[C@H]1O[C@@H](c2c[nH]c(=O)[nH]c2=O)[C@H](O)[C@@H]1O [PUM, Pseudouridimycin]
tested_system: B. subtilis β(Q469R) (Bacillus subtilis, UniProt P37870+P37871, Q469R)
qualifier: =
pIC50: 7.00
